Value source: the supplement of paper PMC10567573

B1: FAM107A (parent)
chain: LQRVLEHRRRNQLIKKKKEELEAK

variants of: B1; assay: protein stability index of a GFP-peptide fusion (GPS, HEK-293T) (PSI 1-6); higher = more stable; conditions: c terminus: a fixed tail appended;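 further: lentivirally expressed fusions sorted by FACS into six bins by GFP to DsRed ratio, PSI derived from sequencing read proportions per bin multiplied by bin number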
# binarize protein stability index: threshold 3 inclusive, high side Yes, low side No

>>> assignedlabel("LQRVLEHRRSNQLIKKKKEELEAK [R10S]")
"Yes"
>>> assignedlabel("LQRVLEHRRRNQLIKKKKEELFAK [E22F]")
"No"
>>> assignedlabel("LQRVLEHRRRNQLIKKKKEELEAM [K24M]")
"Yes"
>>> assignedlabel("LQRVLEHRRRNQLIKKKKEELEEK [A23E]")
"Yes"
>>> assignedlabel("LQRVLEHRRRNQLQKKKKEELEAK [I14Q]")
"Yes"
>>> assignedlabel("LQRVLEHRRNNQLIKKKKEELEAK [R10N]")
"Yes"
>>> assignedlabel("LQRVLEHRRRNQLIRKKKEELEAK [K15R]")
"Yes"
>>> assignedlabel("LQRVLEHMRRNQLIKKKKEELEAK [R8M]")
"Yes"
>>> assignedlabel("LQRVLEHRRRFQLIKKKKEELEAK [N11F]")
"No"
